# assayTarget: Srs2ΔC (Srs2 1-898) (Saccharomyces cerevisiae? (budding …, UniProt P12954 1-898))
# Sequence (P12954 1-898, stated change not applied): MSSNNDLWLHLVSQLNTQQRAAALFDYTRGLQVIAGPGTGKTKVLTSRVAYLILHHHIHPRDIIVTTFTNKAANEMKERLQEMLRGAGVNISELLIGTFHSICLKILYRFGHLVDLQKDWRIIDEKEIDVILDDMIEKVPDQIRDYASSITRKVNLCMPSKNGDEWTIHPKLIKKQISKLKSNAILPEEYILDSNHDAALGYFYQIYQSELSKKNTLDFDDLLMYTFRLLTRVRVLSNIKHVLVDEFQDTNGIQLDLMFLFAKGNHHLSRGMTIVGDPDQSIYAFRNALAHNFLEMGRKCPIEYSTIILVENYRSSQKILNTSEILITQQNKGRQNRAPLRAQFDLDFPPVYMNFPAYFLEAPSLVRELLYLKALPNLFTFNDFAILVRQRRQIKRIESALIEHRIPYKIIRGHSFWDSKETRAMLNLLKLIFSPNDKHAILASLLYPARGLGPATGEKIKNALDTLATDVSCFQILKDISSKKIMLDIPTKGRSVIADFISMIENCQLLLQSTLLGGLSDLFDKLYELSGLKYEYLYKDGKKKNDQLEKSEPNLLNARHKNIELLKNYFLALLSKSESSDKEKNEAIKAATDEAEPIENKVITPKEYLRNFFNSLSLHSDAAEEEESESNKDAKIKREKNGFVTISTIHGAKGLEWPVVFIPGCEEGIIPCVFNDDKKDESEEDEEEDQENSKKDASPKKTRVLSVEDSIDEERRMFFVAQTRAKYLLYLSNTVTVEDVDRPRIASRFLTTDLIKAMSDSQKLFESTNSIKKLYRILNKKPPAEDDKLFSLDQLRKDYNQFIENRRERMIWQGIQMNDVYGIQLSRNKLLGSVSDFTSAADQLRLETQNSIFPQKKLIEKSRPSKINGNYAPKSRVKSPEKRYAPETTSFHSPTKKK
# measurementNotes: competition; FITC-3' overhang competitor releasing 50% of Cy5-ssDNA (N1) from 150 nM Srs2ΔC; 30 mM Tris pH 7.5, 1 mM DTT, 0.1 mg/ml BSA, 100 mM KCl, 3 nM DNA, 30 °C 10 min; 7% native PAGE in 0.5x TBE
# condition: protein: recombinant; tags: His9 (pull-down section says His6); label: fluorescein (FITC), end label
parameter: IC50

Supply recorded IC50 for 3' overhang (mixed) DNA 1: AGCTACCATGCCTGCACGAATTAAGCAATTCGTAATCATGGTCATAGCT DNA 2: AATTCGTGCAGGCATGGTAGCT here.
~5 nM
